In this section, each of the molecules is paired with its reported EC50.
# measurement-target: kallikrein (Homo sapiens (Human), UniProt P03952)
# Sequence (P03952 20-638): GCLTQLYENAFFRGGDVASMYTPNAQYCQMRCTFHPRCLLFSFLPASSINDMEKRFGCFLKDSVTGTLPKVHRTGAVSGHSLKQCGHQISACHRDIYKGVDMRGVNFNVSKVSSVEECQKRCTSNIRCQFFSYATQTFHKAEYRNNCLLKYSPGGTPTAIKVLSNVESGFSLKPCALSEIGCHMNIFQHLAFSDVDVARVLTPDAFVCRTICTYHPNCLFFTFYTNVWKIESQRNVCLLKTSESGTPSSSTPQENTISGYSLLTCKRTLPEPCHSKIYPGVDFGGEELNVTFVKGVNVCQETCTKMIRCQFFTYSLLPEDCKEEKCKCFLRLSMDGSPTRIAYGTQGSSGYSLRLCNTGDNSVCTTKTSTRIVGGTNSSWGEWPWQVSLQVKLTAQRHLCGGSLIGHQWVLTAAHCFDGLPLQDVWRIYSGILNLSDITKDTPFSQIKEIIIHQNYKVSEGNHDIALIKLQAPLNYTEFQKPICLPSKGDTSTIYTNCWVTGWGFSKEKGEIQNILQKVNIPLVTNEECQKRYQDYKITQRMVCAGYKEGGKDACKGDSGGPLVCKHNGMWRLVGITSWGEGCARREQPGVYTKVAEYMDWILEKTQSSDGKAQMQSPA
# assay-text: In vitro cellular assay (contact assay): kallikrein activity in ellagic acid-activated human plasma, substrate Z-FR-2-AMC
# Assay type: biochemical
# condition: human plasma activated with ellagic acid, Z-FR-2-AMC substrate, 37° C.; read-out: Contact Assay EC50

>  <smiles-data>
Cc1cc(N)nc(C)c1CNC(=O)c1ccnc(Cc2cc(F)c3ncc(Cl)cc3c2)c1

>  <measurement-target>
kallikrein (Homo sapiens (Human), UniProt P03952)

>  <EC50>
< 100 nM

$$$$
>  <smiles-data>
Nc1nccc2cc(CNC(=O)c3ccnc(Cc4cnc5ccc(F)cc5c4)c3)ccc12

>  <measurement-target>
kallikrein (Homo sapiens (Human), UniProt P03952)

>  <EC50>
< 100 nM

$$$$
>  <smiles-data>
Cc1cnc2c(C(N)=O)cc(Cc3cc(C(=O)NCc4cc5cc[nH]c5cc4F)ccn3)cc2c1

>  <measurement-target>
kallikrein (Homo sapiens (Human), UniProt P03952)

>  <EC50>
100 to 1000 nM

$$$$
>  <smiles-data>
Cc1ccc2cc(Cc3cc(C(=O)NCc4c(C)cc(N)nc4C)ccn3)ccc2n1

>  <measurement-target>
kallikrein (Homo sapiens (Human), UniProt P03952)

>  <EC50>
< 100 nM

$$$$
>  <smiles-data>
Cc1cnc2c(C#N)cc(Cc3cc(C(=O)NCc4cnc5[nH]cc(Cl)c5c4)ccn3)cc2c1

>  <measurement-target>
kallikrein (Homo sapiens (Human), UniProt P03952)

>  <EC50>
100 to 1000 nM

$$$$
>  <smiles-data>
Cc1cc(N)nc(C)c1CNC(=O)c1ccnc(Cc2cc(Cl)c3ncc(Cl)cc3c2)c1

>  <measurement-target>
kallikrein (Homo sapiens (Human), UniProt P03952)

>  <EC50>
< 100 nM

$$$$
>  <smiles-data>
Cc1cc2cc(Cc3cc(C(=O)NCc4ccc5c(N)nccc5c4)ccn3)ccc2cn1

>  <measurement-target>
kallikrein (Homo sapiens (Human), UniProt P03952)

>  <EC50>
100 to 1000 nM

$$$$
>  <smiles-data>
Cc1cc(N)nc(C)c1CNC(=O)c1ccnc(Cc2cc(S(C)(=O)=O)c3ncc(Cl)cc3c2)c1

>  <measurement-target>
kallikrein (Homo sapiens (Human), UniProt P03952)

>  <EC50>
< 100 nM

$$$$
>  <smiles-data>
O=C(NCc1ccc2[nH]cc(Cl)c2c1F)c1ccnc(Cc2ccc3ncc(Cl)cc3c2)c1

>  <measurement-target>
kallikrein (Homo sapiens (Human), UniProt P03952)

>  <EC50>
100 to 1000 nM

$$$$
>  <smiles-data>
Cc1cnc2c(S(C)(=O)=O)cc(Cc3cc(C(=O)NCc4n[nH]c5ccc(Cl)cc45)ccn3)cc2c1

>  <measurement-target>
kallikrein (Homo sapiens (Human), UniProt P03952)

>  <EC50>
< 100 nM

$$$$
>  <smiles-data>
Cc1nc(N)ccc1CNC(=O)c1ccnc(Cc2ccc3ncc(Cl)cc3c2)c1

>  <measurement-target>
kallikrein (Homo sapiens (Human), UniProt P03952)

>  <EC50>
< 100 nM

$$$$
>  <smiles-data>
Cc1nc(N)ccc1CNC(=O)c1ccnc(Cc2cc(C(N)=O)c3ncc(Cl)cc3c2)c1

>  <measurement-target>
kallikrein (Homo sapiens (Human), UniProt P03952)

>  <EC50>
< 100 nM

$$$$
>  <smiles-data>
Cc1cnc2c(C#N)cc(Cc3cc(C(=O)NCc4cc5c(Cl)c[nH]c5cc4F)ccn3)cc2c1

>  <measurement-target>
kallikrein (Homo sapiens (Human), UniProt P03952)

>  <EC50>
100 to 1000 nM

$$$$
>  <smiles-data>
Cc1cnc2c(S(C)(=O)=O)cc(Cc3cc(C(=O)NCc4c(C)cc(N)nc4C)ccn3)cc2c1

>  <measurement-target>
kallikrein (Homo sapiens (Human), UniProt P03952)

>  <EC50>
< 100 nM

$$$$
>  <smiles-data>
Cc1cc2cc(Cc3cc(C(=O)NCc4c(C)cc(N)nc4C)ccn3)ccc2cn1

>  <measurement-target>
kallikrein (Homo sapiens (Human), UniProt P03952)

>  <EC50>
< 100 nM

$$$$
>  <smiles-data>
NC(=O)c1cc(Cc2cc(C(=O)NCc3cnc4[nH]cc(Cl)c4c3)ccn2)cc2cc(Cl)cnc12

>  <measurement-target>
kallikrein (Homo sapiens (Human), UniProt P03952)

>  <EC50>
100 to 1000 nM

$$$$
>  <smiles-data>
Cc1cnc2ccc(Cc3cc(C(=O)NCc4ccc5c(N)nccc5c4)ccn3)cc2c1

>  <measurement-target>
kallikrein (Homo sapiens (Human), UniProt P03952)

>  <EC50>
< 100 nM

$$$$
>  <smiles-data>
O=C(NCc1cnc2[nH]cc(Cl)c2c1)c1ccnc(Cc2ccc3ncc(Cl)cc3c2)c1

>  <measurement-target>
kallikrein (Homo sapiens (Human), UniProt P03952)

>  <EC50>
100 to 1000 nM

$$$$
>  <smiles-data>
Cc1cnc2c(C(N)=O)cc(Cc3cc(C(=O)NCc4n[nH]c5ccc(Cl)cc45)ccn3)cc2c1

>  <measurement-target>
kallikrein (Homo sapiens (Human), UniProt P03952)

>  <EC50>
100 to 1000 nM

$$$$
>  <smiles-data>
CS(=O)(=O)c1cc(Cc2cc(C(=O)NCc3cc4c(Cl)c[nH]c4cc3F)ccn2)cc2cc(Cl)cnc12

>  <measurement-target>
kallikrein (Homo sapiens (Human), UniProt P03952)

>  <EC50>
< 100 nM

$$$$
>  <smiles-data>
Cc1cnc2c(C(N)=O)cc(Cc3cc(C(=O)NCc4ccc5[nH]cc(Cl)c5c4F)ccn3)cc2c1

>  <measurement-target>
kallikrein (Homo sapiens (Human), UniProt P03952)

>  <EC50>
100 to 1000 nM

$$$$
>  <smiles-data>
Cc1ccc2cc(Cc3cc(C(=O)NCc4cc5c(Cl)c[nH]c5cc4F)ccn3)ccc2n1

>  <measurement-target>
kallikrein (Homo sapiens (Human), UniProt P03952)

>  <EC50>
100 to 1000 nM

$$$$
>  <smiles-data>
Cc1cnc2c(S(C)(=O)=O)cc(Cc3cc(C(=O)NCc4ccc5[nH]cc(Cl)c5c4F)ccn3)cc2c1

>  <measurement-target>
kallikrein (Homo sapiens (Human), UniProt P03952)

>  <EC50>
< 100 nM

$$$$
>  <smiles-data>
NC(=O)c1cc(Cc2cc(C(=O)NCc3n[nH]c4ccc(Cl)cc34)ccn2)cc2cc(Cl)cnc12

>  <measurement-target>
kallikrein (Homo sapiens (Human), UniProt P03952)

>  <EC50>
100 to 1000 nM

$$$$
>  <smiles-data>
NC(=O)c1cc(Cc2cc(C(=O)NCc3ccc4[nH]cc(Cl)c4c3F)ccn2)cc2cc(Cl)cnc12

>  <measurement-target>
kallikrein (Homo sapiens (Human), UniProt P03952)

>  <EC50>
< 100 nM

$$$$
>  <smiles-data>
NC(=O)c1cc(Cc2cc(C(=O)NCc3cc4c(Cl)c[nH]c4cc3F)ccn2)cc2cc(Cl)cnc12

>  <measurement-target>
kallikrein (Homo sapiens (Human), UniProt P03952)

>  <EC50>
100 to 1000 nM

$$$$
>  <smiles-data>
Cc1ccc2ncc(Cc3cc(C(=O)NCc4ccc5c(N)nccc5c4)ccn3)cc2c1

>  <measurement-target>
kallikrein (Homo sapiens (Human), UniProt P03952)

>  <EC50>
< 100 nM

$$$$
>  <smiles-data>
Cc1cc(N)nc(C)c1CNC(=O)c1ccnc(Cc2ccc3ncc(Cl)cc3c2)c1

>  <measurement-target>
kallikrein (Homo sapiens (Human), UniProt P03952)

>  <EC50>
< 100 nM

$$$$
>  <smiles-data>
Cc1ccc2ncc(Cc3cc(C(=O)NCc4c(C)cc(N)nc4C)ccn3)cc2c1

>  <measurement-target>
kallikrein (Homo sapiens (Human), UniProt P03952)

>  <EC50>
< 100 nM

$$$$
>  <smiles-data>
Cc1cnc2ccc(Cc3cc(C(=O)NCc4c(C)cc(N)nc4C)ccn3)cc2c1

>  <measurement-target>
kallikrein (Homo sapiens (Human), UniProt P03952)

>  <EC50>
< 100 nM

$$$$
>  <smiles-data>
Cc1cnc2c(C#N)cc(Cc3cc(C(=O)NCc4ccc5c(N)nccc5c4)ccn3)cc2c1

>  <measurement-target>
kallikrein (Homo sapiens (Human), UniProt P03952)

>  <EC50>
< 100 nM

$$$$
>  <smiles-data>
Cc1ccc2cc(Cc3cc(C(=O)NCc4ccc5c(N)nccc5c4)ccn3)ccc2n1

>  <measurement-target>
kallikrein (Homo sapiens (Human), UniProt P03952)

>  <EC50>
100 to 1000 nM

$$$$

From: patent US9611252B2
